Biological target: Caspase-3 (Homo sapiens);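 also: Dose-response selectivity test against caspase-3 for candidate inhibitors of sentrin-specific proteases (SENPs)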
Format: functional
Active and inactive are the calls of the source.
Write down the outcome that applies. Available outcomes: t for active, f for inactive

# example entries with known answers
{"columns": ["molecule", "label value"],
 "data": [
  ["COc1ccc(COc2ccc3c(C)cc(=O)oc3c2)cc1", "t"],
  ["O=C(CCCN1C(=O)/C(=C/c2cccc(Br)c2)SC1=S)N1CCOCC1", "f"],
  ["COc1cc2c(cc1OC)-c1c(OC)c(OC)cc3c1C(C2)N(C)CC3 (configuration not stated)", "t"],
  ["COc1cc(OC)c(NC2=CC(=O)C(=O)c3ccccc32)cc1Cl", "t"],
  ["COc1ccc(C(=O)Nc2ccc3ccccc3n2)c(OC)c1OC", "t"]
]}

What call does the record list for O=C1/C(=C\c2ccc(O)cc2)SC(=S)N1Cc1ccccc1 ?
t

What was the test verdict on CCOc1ccc(/C=N/NC(=O)c2ccc(Cn3cc(Br)cn3)o2)cc1 ?
t

###

Target: Corticotropin-releasing factor receptor 2/Corticotropin-releasing factor-binding protein (Homo sapiens, UniProt P24387+Q13324)
Sequence (Q13324 whole entry): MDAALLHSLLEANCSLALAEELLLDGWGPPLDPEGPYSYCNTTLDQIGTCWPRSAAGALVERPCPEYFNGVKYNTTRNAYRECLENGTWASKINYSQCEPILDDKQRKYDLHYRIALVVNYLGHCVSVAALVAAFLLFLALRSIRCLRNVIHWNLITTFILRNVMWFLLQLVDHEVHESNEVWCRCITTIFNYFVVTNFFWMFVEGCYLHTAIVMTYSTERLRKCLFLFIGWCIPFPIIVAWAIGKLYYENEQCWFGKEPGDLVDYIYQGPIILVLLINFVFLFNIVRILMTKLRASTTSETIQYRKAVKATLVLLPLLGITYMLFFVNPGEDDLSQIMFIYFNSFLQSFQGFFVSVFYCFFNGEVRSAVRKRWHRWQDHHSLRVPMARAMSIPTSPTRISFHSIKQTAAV
Sequence (P24387 whole entry): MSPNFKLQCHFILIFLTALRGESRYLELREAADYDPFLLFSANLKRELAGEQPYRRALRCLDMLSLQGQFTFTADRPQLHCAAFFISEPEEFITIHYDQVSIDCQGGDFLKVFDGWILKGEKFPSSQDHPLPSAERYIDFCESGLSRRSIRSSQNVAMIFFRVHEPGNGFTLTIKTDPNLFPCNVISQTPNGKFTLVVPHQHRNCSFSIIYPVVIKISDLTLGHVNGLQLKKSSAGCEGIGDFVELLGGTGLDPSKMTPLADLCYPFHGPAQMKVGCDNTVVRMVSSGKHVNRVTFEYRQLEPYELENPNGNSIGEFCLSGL
Experiment: Dose Response confirmation of uHTS hits for small molecule antagonists of the CRF-binding protein and CRF-R2 receptor complex.
Assay type: functional
Settings: read-out: IC50_Mean
Activity calls are given as the source filed them.
# valid calls are 1 (yes) (active), 0 (no) (inactive); nothing else

{"columns": ["molecule", "label value"],
 "data": [
  ["O=C1NC(=O)N(CCNc2ncc(C(F)(F)F)cc2Cl)C(=O)C1/C=N/OCc1c(F)cccc1Cl (stereo not drawn)", "0 (no)"],
  ["O=C(Nc1ccc(Cl)cn1)c1cccc(S(=O)(=O)N2CCCC2)c1", "0 (no)"]
]}

Shifting focus to the molecule that follows.
Which outcome was assigned to Cc1[nH]c2ccccc2c1/C=C1/C(=N)N2C(=NC1=O)SN=C2S(=O)(=O)CC(C)C in this test?
1 (yes)

###

Target: Protein RecA (Mycobacterium tuberculosis)
Test: Fluorescence Cell-Free Homogeneous Dose Retest to Identify Inhibitors of RecA-Intein Splicing Activity. [Related pubchem assays (depositor defined):AID2097, AID2223, AID489010, AID492950]
Format: functional
Active and inactive are the calls of the source.
Respond using exactly one of the listed classes: true (1) = active, false (0) = inactive

Worked examples follow.
{"columns": ["molecule", "label value"],
 "data": [
  ["O=C(Sc1nnc(-c2ccccc2)o1)N1c2ccccc2Sc2ccccc21", "true (1)"],
  ["CCN1C(=O)c2c(C)nc3ccccc3c2C1=O", "true (1)"],
  ["CCN1Cc2c(/C=C/c3ccccc3)nc3ccc(OC)cc3c2N(c2cccc(Cl)c2)C1", "true (1)"],
  ["O=C(CCCN1C(=O)/C(=C/c2cccs2)SC1=S)Nc1ccc(O)cc1", "true (1)"],
  ["CCC(=O)N/N=C(\\C)CC(=O)Nc1cccc([N+](=O)[O-])c1", "true (1)"]
]}

Name the outcome recorded for COc1cc2c(cc1OC)-c1c(OC)c(OC)cc3c1C(C2)N(C)CC3 (stereo unspecified) in the assay.
true (1)

Write down the call the test reported for this molecule. Item: COc1cc(/C=C/C(=O)OCC(=O)Nc2ccccc2Sc2ccc(Cl)cc2)ccc1O
true (1)

Outcome? CC1=NN(Cc2ccccc2)C(=O)C1C(c1ccncc1)C(C#N)C#N (stereo unspecified)
true (1)

For CCOc1ccccc1Oc1coc2cc(OC(=O)c3ccco3)ccc2c1=O , what call appears in the results of this test?
true (1)

###

System: Streptococcus sp. 'group A'
Test: Streptococcus pyogenes SK(-)GAS viability under kanamycin – luminescence, BacTiterGlo, confirmation, counter-screen for streptokinase expression inhibitor project, dose response (AID 1900)
Type: functional, organism-based
Calls of active or inactive are those of the source.
Listed below: EC50 values for each entry.

Illustrative cases are given below, each with its answer.
{"columns": ["compound structure string", "EC50"],
 "data": [
  ["CCc1ccc(S(=O)(=O)/N=C2\\C=C(Nc3cccc(C(=O)O)c3)C(=O)c3ccccc32)cc1", "1260 nM (active)"],
  ["O=C(NNC(=S)NC(=O)c1cccs1)c1ccc(NC(=O)c2ccccc2)cc1", "479 nM (active)"],
  ["O=C(CSc1nc(O)nc(-c2ccc(Cl)cc2)n1)Nc1cccc(Cl)c1", "4350 nM (active)"],
  ["CCCOc1ccc(C(=O)NNC(=S)NC(=O)c2cc(-c3ccc(Cl)cc3)nc3ccccc23)cc1", "< 60 nM (active)"],
  ["CN1CCN(NC(=O)Nc2cc(Cl)cc(Cl)c2)CC1", "6770 nM (active)"]
]}

Now examine the next entry.
# return recorded EC50 for entry CCc1ccc(/C=C/c2c([N+](=O)[O-])c(=O)n(C)c(=O)n2C)cc1
4550 nM (active)

###

Biological target: Neurotensin receptor type 1 (Homo sapiens, UniProt P30989);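 also: Image-based confirmatory dose-response assay measuring agonist activity at NTR1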;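 also: NTR1-expressing U2OS osteosarcoma cells imaged for beta-arrestin GFP spot formation; agonist potency where compounds increase beta-arrestin recruitment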
Sequence (P30989 whole entry): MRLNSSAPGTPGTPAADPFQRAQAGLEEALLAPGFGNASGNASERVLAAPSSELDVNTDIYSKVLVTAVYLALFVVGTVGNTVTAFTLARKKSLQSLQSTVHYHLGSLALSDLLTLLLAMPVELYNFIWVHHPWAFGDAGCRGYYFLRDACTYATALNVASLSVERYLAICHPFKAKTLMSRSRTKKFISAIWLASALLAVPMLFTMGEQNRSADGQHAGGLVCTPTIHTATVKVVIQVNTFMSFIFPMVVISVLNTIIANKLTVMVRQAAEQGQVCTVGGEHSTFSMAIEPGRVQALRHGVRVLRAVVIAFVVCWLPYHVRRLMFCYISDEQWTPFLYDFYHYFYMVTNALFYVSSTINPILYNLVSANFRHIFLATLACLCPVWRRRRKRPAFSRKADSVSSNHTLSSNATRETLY
Assay type: functional
Active and inactive are the calls of the source.
measured parameter: EC50

Record excerpt, results attached:
{"columns": ["compound", "measured parameter", "recorded result"],
 "data": [
  ["COc1ccc(C(C[N+](=O)[O-])n2nc(C)cc2C)cc1 (stereo not given)", "EC50", "10.1 µM (active)"],
  ["CCCCCCCCCCOC(=O)Cn1c(COc2cccc(OC)c2)[n+](C)c2ccccc21", "EC50", "14.3 µM (active)"],
  ["COC(=O)c1ccc2c(c1)C(C)(C)C(/C=C/c1ccccc1O)=[N+]2C.[I-]", "EC50", "18.3 µM (active)"]
]}

Give a short answer stating reported EC50 for O=C(c1ccc(Cl)cc1)C(CN1CCCCC1)c1ccccc1 (stereo not given) .
14.7 µM (active)

Name the recorded EC50 of the compound listed here: Cc1cc(C)cc(N2C(=O)NC(=O)/C(=C/c3cccn3-c3ccc(Cl)cc3)C2=O)c1
10.6 µM (active)

###

System: HEK293
Assay: EBV LMP1 TES2 canonical NF-kB signalling blockers – cell-based, HEK293, luciferase, cherry-pick, dose response (AID 588343)
Assay type: functional
Details: Homo sapiens
Calls of active or inactive are those of the source.
measured parameter: AC50

Illustrative cases are given below, each with its answer.
{"columns": ["molecule", "measured parameter", "recorded result"],
 "data": [
  ["CC[C@]1(C(=O)OC)[C@H]2C(=O)N(Cc3ccccc3)C(=O)[C@H]2[C@H]2CN=C(SCc3ccc(C#N)cc3)N21", "AC50", "4.97 µM (active)"],
  ["CC1CC(C)C(=O)C(C(CC2CC(=O)NC(=O)C2)OC(=O)CC(=O)c2ccccc2)C1 (centres undefined)", "AC50", "42.3 µM (active)"],
  ["O=C(/C=C/Nc1ccc(F)cc1Br)c1ccccc1", "AC50", "1.38 µM (active)"]
]}

Proceeding to the next molecule to report its AC50.
State, in one line, measured AC50 of O=C(NC1CCCCCCC1)c1cc(COc2ccc3ncccc3c2)on1
39.6 µM (active)

###

// reported IC50 for each item listed
Biological target: Sentrin-specific protease 6 (Homo sapiens, UniProt Q9GZR1);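 also: Luminescence-based dose-response confirmatory assay of SENP6 inhibition, following up an ultra-high-throughput screen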
Sequence (Q9GZR1 whole entry): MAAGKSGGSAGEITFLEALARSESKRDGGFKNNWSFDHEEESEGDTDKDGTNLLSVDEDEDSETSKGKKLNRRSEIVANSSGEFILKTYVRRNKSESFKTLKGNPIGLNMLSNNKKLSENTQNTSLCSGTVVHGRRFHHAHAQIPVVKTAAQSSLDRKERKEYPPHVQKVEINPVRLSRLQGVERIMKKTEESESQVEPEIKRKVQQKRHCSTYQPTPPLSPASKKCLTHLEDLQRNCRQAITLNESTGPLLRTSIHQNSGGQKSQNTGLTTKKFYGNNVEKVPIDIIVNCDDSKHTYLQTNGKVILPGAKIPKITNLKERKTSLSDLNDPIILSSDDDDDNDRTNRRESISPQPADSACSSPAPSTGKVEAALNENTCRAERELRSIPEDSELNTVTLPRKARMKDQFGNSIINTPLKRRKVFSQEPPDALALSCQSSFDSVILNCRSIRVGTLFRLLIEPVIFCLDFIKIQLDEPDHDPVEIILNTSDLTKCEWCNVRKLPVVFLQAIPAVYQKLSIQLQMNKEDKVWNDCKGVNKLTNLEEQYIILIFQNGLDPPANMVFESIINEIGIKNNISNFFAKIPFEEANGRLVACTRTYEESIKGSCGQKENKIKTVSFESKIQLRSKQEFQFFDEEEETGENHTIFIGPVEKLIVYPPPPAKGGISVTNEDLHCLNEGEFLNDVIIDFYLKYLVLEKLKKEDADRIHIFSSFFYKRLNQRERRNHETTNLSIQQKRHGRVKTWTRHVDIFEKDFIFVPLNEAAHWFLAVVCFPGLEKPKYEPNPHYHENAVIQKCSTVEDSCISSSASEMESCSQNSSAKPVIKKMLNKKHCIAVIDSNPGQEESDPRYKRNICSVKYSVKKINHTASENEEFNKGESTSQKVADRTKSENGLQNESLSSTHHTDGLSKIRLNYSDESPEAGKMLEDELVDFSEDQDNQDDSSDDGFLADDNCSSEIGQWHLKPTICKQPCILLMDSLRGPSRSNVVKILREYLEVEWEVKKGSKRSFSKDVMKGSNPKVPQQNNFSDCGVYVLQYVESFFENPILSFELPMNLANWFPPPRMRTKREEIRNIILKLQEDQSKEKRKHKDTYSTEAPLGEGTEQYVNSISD
Type: functional
Calls of active or inactive are those of the source.

{"columns": ["compound", "IC50"],
 "data": [
  ["CCOc1ccc(/C=N/NC(=O)c2ccc(Cn3cc(Br)cn3)o2)cc1", "52.7 µM (active)"],
  ["COc1cc(OC)c(NC2=CC(=O)C(=O)c3ccccc32)cc1Cl", "2.25 µM (active)"],
  ["COc1ccc(C(=O)Nc2ccc3ccccc3n2)c(OC)c1OC", "2.95 µM (active)"],
  ["COc1ccc(COc2ccc3c(C)cc(=O)oc3c2)cc1", "21.6 µM (active)"],
  ["O=C1/C(=C\\c2ccc(O)cc2)SC(=S)N1Cc1ccccc1", "8 µM (active)"]
]}

Provide one value: measured IC50 of O=C(CCCN1C(=O)/C(=C/c2cccc(Br)c2)SC1=S)N1CCOCC1
79.6 µM (active)

Indicate its recorded IC50; the compound in question is COc1cc2c(cc1OC)-c1c(OC)c(OC)cc3c1C(C2)N(C)CC3 (configuration not stated)
1.86 µM (active)

From: ChEMBL document CHEMBL1201862
